study-system: UniProt Q9UBN7
Square brackets hold non-standard residues; d marks the D form. Peptide text beside a SMILES is read from it. β3hW = N[C@H](CC(=O)O)Cc1c[nH]c2ccccc12; 1Nal = N[C@@H](Cc1cccc2ccccc12)C(=O)O; Asu = N[C@@H](CCCCCC(=O)O)C(=O)O; β3hL = CC(C)C[C@H](N)CC(=O)O; Aib = CC(C)(N)C(=O)O
# IC50 per record follows
Output spec: scalar in µM, unitless text.

Enter IC50 (test system UniProt Q9UBN7) for CC(C)C[C@H]1CC(=O)N[C@@H](Cc2ccccc2)C(=O)N[C@@H](CCCCCC(=O)O)C(=O)N[C@@H](Cc2cccc3ccccc23)C(=O)N1 (cyclo([1Nal][β3hL]F[Asu]))
5.8

Further cases:
Find IC50 for CC1(C)NC(=O)C[C@H](Cc2c[nH]c3ccccc23)NC(=O)[C@H](Cc2cccc3ccccc23)NC(=O)[C@H](CCCCCC(=O)O)NC1=O (cyclo([1Nal][β3hW][Aib][Asu])) on UniProt Q9UBN7 and write it down.
3.7

====

study-system: Histone deacetylase
Assay type: cell-based, Homo sapiens
applied-conditions: hela
Description: Inhibition of HDAC in human HeLa cell nuclear extract after 30 mins by fluorimetric assay
Square brackets hold non-standard residues; d marks the D form. Peptide text beside a SMILES is read from it. β3hW = N[C@H](CC(=O)O)Cc1c[nH]c2ccccc12; 1Nal = N[C@@H](Cc1cccc2ccccc12)C(=O)O; Asu = N[C@@H](CCCCCC(=O)O)C(=O)O; β3hL = CC(C)C[C@H](N)CC(=O)O; hLys = NCCCCC[C@H](N)C(=O)O
quantity-measured: IC50

Specify reported IC50 for the molecule shown: CC(=O)NCCCCC[C@@H]1NC(=O)C[C@H](CC(C)C)NC(=O)[C@H](Cc2cccc3ccccc23)NC(=O)[C@H](CCCCCC(=O)O)NC1=O (cyclo([1Nal][β3hL][hLys](Ac)[Asu]))
17 nM

Please give measured IC50 of the following entry: O=C(O)CCCCC[C@@H]1NC(=O)[C@H](Cc2ccccc2)NC(=O)C[C@H](Cc2c[nH]c3ccccc23)NC(=O)[C@H](Cc2cccc3ccccc23)NC1=O (cyclo([1Nal][β3hW]F[Asu]))
1040 nM

Determine its reported IC50: CC(C)C[C@H]1CC(=O)N[C@@H](Cc2ccccc2)C(=O)N[C@@H](CCCCCC(=O)O)C(=O)N[C@@H](Cc2cccc3ccccc23)C(=O)N1 (cyclo([1Nal][β3hL]F[Asu]))
253 nM

Please indicate IC50 recorded for CC(C)C[C@H]1CC(=O)N[C@@H](C)C(=O)N[C@@H](CCCCCC(=O)O)C(=O)N[C@@H](Cc2cccc3ccccc23)C(=O)N1 (cyclo([Asu][1Nal][β3hL]A))
205 nM

====

Square brackets hold non-standard residues; d marks the D form. Peptide text beside a SMILES is read from it. * marks the point of attachment. β3hW = N[C@H](CC(=O)O)Cc1c[nH]c2ccccc12; 1Nal = N[C@@H](Cc1cccc2ccccc12)C(=O)O; Asu = N[C@@H](CCCCCC(=O)O)C(=O)O; β3hL = CC(C)C[C@H](N)CC(=O)O; CH2CH2COOH = O=C(O)CC*; NHOH = ON*
What follows is a record of IC50 for Histone deacetylase 3 (Homo sapiens, UniProt O15379).
Write down the numeric answer in nM and omit the unit.

State, in one line, measured IC50 of CC(C)C[C@H]1CC(=O)N[C@@H](Cc2ccccc2)C(=O)N[C@@H](CCCCCC(=O)O)C(=O)N[C@@H](Cc2cccc3ccccc23)C(=O)N1 (cyclo([1Nal][β3hL]F[Asu]))
690

Note IC50 for the compound shown: O=C(O)CCCCC[C@@H]1NC(=O)[C@H](Cc2ccccc2)NC(=O)C[C@H](Cc2c[nH]c3ccccc23)NC(=O)[C@H](Cc2cccc3ccccc23)NC1=O (cyclo([1Nal][β3hW]F[Asu]))
1670

Using the record for CC(C)C[C@H]1CC(=O)N[C@@H](Cc2ccccc2)C(=O)N[C@@H](CCCCCC(=O)NO)C(=O)N[C@@H](Cc2c[nH]c3ccccc23)C(=O)N1 (cyclo([Asu](NHOH)W[β3hL]F)) , state its measured IC50.
31

Please give measured IC50 of the following entry: CC(C)C[C@H]1CC(=O)N[C@@H](C)C(=O)N[C@@H](CSCCC(=O)O)C(=O)N[C@@H](Cc2c[nH]c3ccccc23)C(=O)N1 (cyclo(C(CH2CH2COOH)W[β3hL]A))
7080

Complete the entry with IC50 for CCC(=O)CCCCC[C@@H]1NC(=O)C[C@H](CC(C)C)NC(=O)[C@H](Cc2c[nH]c3ccccc23)NC(=O)[C@H](CCCCCC(=O)CC)NC1=O
260

Name the recorded IC50 of the compound listed here: CC(C)C[C@H]1CC(=O)N[C@@H](C)C(=O)N[C@@H](CCCCCC(=O)O)C(=O)N[C@@H](Cc2cccc3ccccc23)C(=O)N1 (cyclo([Asu][1Nal][β3hL]A))
990

====

study-system: Protein deacetylase HDAC6 (Homo sapiens)
Sequence (Q9UBN7 whole entry): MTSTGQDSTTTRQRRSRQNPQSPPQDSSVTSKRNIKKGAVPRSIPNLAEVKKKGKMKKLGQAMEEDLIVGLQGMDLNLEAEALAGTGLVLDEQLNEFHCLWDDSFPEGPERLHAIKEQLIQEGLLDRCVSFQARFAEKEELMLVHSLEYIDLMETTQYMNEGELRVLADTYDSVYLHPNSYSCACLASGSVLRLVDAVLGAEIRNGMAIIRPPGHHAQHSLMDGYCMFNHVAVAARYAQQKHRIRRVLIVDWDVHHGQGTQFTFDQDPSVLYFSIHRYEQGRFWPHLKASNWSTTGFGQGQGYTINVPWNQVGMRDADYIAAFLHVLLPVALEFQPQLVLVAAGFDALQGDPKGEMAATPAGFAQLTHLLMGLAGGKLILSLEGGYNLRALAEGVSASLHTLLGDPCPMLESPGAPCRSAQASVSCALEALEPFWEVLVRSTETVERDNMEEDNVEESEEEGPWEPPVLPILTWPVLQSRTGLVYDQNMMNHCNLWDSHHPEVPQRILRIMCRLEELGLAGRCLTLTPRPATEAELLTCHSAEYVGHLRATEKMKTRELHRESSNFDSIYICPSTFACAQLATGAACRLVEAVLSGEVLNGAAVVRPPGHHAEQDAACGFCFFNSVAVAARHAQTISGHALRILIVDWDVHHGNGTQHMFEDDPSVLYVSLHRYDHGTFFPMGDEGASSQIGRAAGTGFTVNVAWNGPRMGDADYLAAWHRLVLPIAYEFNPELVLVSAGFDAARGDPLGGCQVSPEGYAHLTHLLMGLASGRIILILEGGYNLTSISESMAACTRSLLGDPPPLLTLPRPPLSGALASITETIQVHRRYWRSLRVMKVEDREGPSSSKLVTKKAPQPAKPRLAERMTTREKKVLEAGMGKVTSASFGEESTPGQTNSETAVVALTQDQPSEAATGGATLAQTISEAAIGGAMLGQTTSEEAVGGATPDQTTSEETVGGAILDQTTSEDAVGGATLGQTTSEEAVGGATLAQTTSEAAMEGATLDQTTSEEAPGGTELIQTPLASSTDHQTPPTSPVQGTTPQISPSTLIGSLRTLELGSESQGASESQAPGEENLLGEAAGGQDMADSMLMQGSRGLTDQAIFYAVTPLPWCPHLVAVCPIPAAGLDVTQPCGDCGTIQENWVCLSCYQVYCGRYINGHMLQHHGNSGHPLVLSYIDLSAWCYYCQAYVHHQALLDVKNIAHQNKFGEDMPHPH
Square brackets hold non-standard residues; d marks the D form. Peptide text beside a SMILES is read from it. * marks the point of attachment. β3hW = N[C@H](CC(=O)O)Cc1c[nH]c2ccccc12; 1Nal = N[C@@H](Cc1cccc2ccccc12)C(=O)O; β3hY = N[C@H](CC(=O)O)Cc1ccc(O)cc1; Asu = N[C@@H](CCCCCC(=O)O)C(=O)O; β3hL = CC(C)C[C@H](N)CC(=O)O; NHOH = ON*
Each item that follows carries a reported pIC50.
The scale used: pIC50 is minus the common logarithm of the concentration in molar units.

# return recorded pIC50 for input O=C(O)CCCCC[C@@H]1NC(=O)[C@H](Cc2ccccc2)NC(=O)C[C@H](Cc2c[nH]c3ccccc23)NC(=O)[C@H](Cc2cccc3ccccc23)NC1=O (cyclo([1Nal][β3hW]F[Asu]))
5.10

Kindly indicate its recorded pIC50. Item: CC(C)C[C@H]1CC(=O)N[C@@H](Cc2ccccc2)C(=O)N[C@@H](CCCCCC(=O)NO)C(=O)N[C@@H](Cc2c[nH]c3ccccc23)C(=O)N1 (cyclo([Asu](NHOH)W[β3hL]F))
7.15

Supply reported pIC50 belonging to this compound: CC(=O)NCCCC[C@@H]1NC(=O)C[C@H](Cc2ccc(O)cc2)NC(=O)[C@H](Cc2cccc3ccccc23)NC(=O)[C@H](CCCCCC(=O)O)NC1=O (cyclo([1Nal][β3hY]K(Ac)[Asu]))
5.36

Now take the following compound into account.
Could you please provide reported pIC50 for CC(C)C[C@H]1CC(=O)N[C@@H](CCCNC(=N)N)C(=O)N[C@@H](CCCCCC(=O)O)C(=O)N[C@@H](Cc2cccc3ccccc23)C(=O)N1 (cyclo([Asu][1Nal][β3hL]R)) ? Thanks!
5.85
